- test-method-notes: Hemolytic activity in sheep RBC assessed as hemolysis incubated for 1 hr
- Format: ADME, cell-based, Ovis aries, Erythrocyte
- condition-context: sheep red blood cells (erythrocytes)
Documented HC50 at 1 h across a set of compounds

Ask: What value of HC50 at 1 h has been recorded for this entry: C=CCc1ccc(O)c(-c2cc(CC=C)ccc2O)c1 [MAGNOLOL]
Result: 463 µg/mL

Ask: Same again, this time with C=CCc1ccc(OCCC[N+](C)(C)CC(=O)NCC)c(-c2ccc(OCCC[N+](C)(C)CC(=O)NCC)c(CC=C)c2)c1.[Br-].[Br-]
Result: 1130 µg/mL

Ask: Same again, this time with C=CCc1ccc(OCCCC[N+](C)(C)CC(=O)NCCCC)c(-c2ccc(OCCCC[N+](C)(C)CC(=O)NCCCC)c(CC=C)c2)c1.[Br-].[Br-]
Result: 531 µg/mL

Ask: Same again, this time with C=CCc1ccc(OCCC[N+](C)(C)CC(=O)NCCCCC)c(-c2ccc(OCCC[N+](C)(C)CC(=O)NCCCCC)c(CC=C)c2)c1.[Br-].[Br-]
Result: 1090 µg/mL

Ask: Same again, this time with C=CCc1ccc(O)c(-c2cc(CC=C)ccc2OCC[N+](C)(C)CC(=O)NCCCCCC)c1.[Br-]
Result: 723 µg/mL

Ask: Same again, this time with C=CCc1ccc(O)c(-c2cc(CC=C)ccc2OCC[N+](C)(C)CC(=O)N(CCCC)CCCC)c1.[Br-]
Result: 786 µg/mL

Ask: Same again, this time with C=CCc1ccc(OCCCC[N+](C)(C)CC(=O)NCCCCC)c(-c2ccc(OCCCC[N+](C)(C)CC(=O)NCCCCC)c(CC=C)c2)c1.[Br-].[Br-]
Result: 448 µg/mL

Ask: Same again, this time with C=CCc1ccc(OCCCC[N+](C)(C)CC(=O)NCCC)c(-c2ccc(OCCCC[N+](C)(C)CC(=O)NCCC)c(CC=C)c2)c1.[Br-].[Br-]
Result: 644 µg/mL

Ask: Same again, this time with C=CCc1ccc(O)c(-c2cc(CC=C)ccc2OCCCC[N+](C)(C)CC(=O)NCCCCCC)c1.[Br-]
Result: 698 µg/mL

Ask: Same again, this time with C=CCc1ccc(OCCCC[N+](C)(C)CC(=O)NCCCCCC)c(-c2ccc(OCCCC[N+](C)(C)CC(=O)NCCCCCC)c(CC=C)c2)c1.[Br-].[Br-]
Result: 573 µg/mL

Ask: Same again, this time with C=CCc1ccc(O)c(-c2cc(CC=C)ccc2OCC[N+](C)(C)CC(=O)NCCCC)c1.[Br-]
Result: 573 µg/mL

Ask: Same again, this time with C=CCc1ccc(O)c(-c2cc(CC=C)ccc2OCC[N+](C)(C)CC(=O)NCCCCC)c1.[Br-]
Result: 645 µg/mL

Ask: Same again, this time with C=CCc1ccc(OCCC[N+](C)(C)CC(=O)NCCC)c(-c2ccc(OCCC[N+](C)(C)CC(=O)NCCC)c(CC=C)c2)c1.[Br-].[Br-]
Result: 682 µg/mL

Ask: Same again, this time with C=CCc1ccc(O)c(-c2cc(CC=C)ccc2OCCC[N+](C)(C)CC(=O)NCCCCC)c1.[Br-]
Result: 678 µg/mL

Ask: Same again, this time with C=CCc1ccc(O)c(-c2cc(CC=C)ccc2OCCC[N+](C)(C)CC(=O)N(CCCC)CCCC)c1.[Br-]
Result: 764 µg/mL

Ask: Same again, this time with C=CCc1ccc(OCCC[N+](C)(C)CC(=O)NCCCCCC)c(-c2ccc(OCCC[N+](C)(C)CC(=O)NCCCCCC)c(CC=C)c2)c1.[Br-].[Br-]
Result: 1080 µg/mL

Ask: Same again, this time with C=CCc1ccc(OCC[N+](C)(C)CC(=O)N(CCCC)CCCC)c(-c2ccc(OCC[N+](C)(C)CC(=O)N(CCCC)CCCC)c(CC=C)c2)c1.[Br-].[Br-]
Result: > 1280 µg/mL

Ask: Same again, this time with C=CCc1ccc(OCCCC[N+](C)(C)CC(=O)N(CCCC)CCCC)c(-c2ccc(OCCCC[N+](C)(C)CC(=O)N(CCCC)CCCC)c(CC=C)c2)c1.[Br-].[Br-]
Result: 633 µg/mL

Ask: Same again, this time with C=CCc1ccc(OCC[N+](C)(C)CC(=O)NCC)c(-c2ccc(OCC[N+](C)(C)CC(=O)NCC)c(CC=C)c2)c1.[Br-].[Br-]
Result: 639 µg/mL

Ask: Same again, this time with C=CCc1ccc(O)c(-c2cc(CC=C)ccc2OCCCC[N+](C)(C)CC(=O)N(CCCC)CCCC)c1.[Br-]
Result: 712 µg/mL

Ask: Same again, this time with C=CCc1ccc(OCC[N+](C)(C)CC(=O)NCCCC)c(-c2ccc(OCC[N+](C)(C)CC(=O)NCCCC)c(CC=C)c2)c1.[Br-].[Br-]
Result: 832 µg/mL
